Organism: Rattus norvegicus
Assay Comment: DrugMatrix - Regimen: Daily Repeat
Format: toxicity, organism-based, Sprague-Dawley
Parameters: regimen Daily Repeat, gender Male, age 6-8 weeks
Condition Details: in vivo, po, 0 mg/kg, 120 h, tissue Plasma, route oral GAVAGE, dose level Control, time 5 day, vehicle 100 % WATER
Measured Attribute: CREATININE (mg/dL)
Write the value in mg/dL as a bare number.

[Q] # return recorded CREATININE for input Cc1onc(-c2ccccc2Cl)c1C(=O)N[C@@H]1C(=O)N2[C@@H]1SC(C)(C)[C@@H]2C(=O)O
[A] 0.16

[Q] # return recorded CREATININE for input COc1cc2nc(N3CCN(C(=O)C4COc5ccccc5O4)CC3)nc(N)c2cc1OC (centres undefined)
[A] 0.17

[Q] # return recorded CREATININE for input Clc1cccc(Cl)c1N=C1NCCN1
[A] 0.18
